Cited source: patent US4029805A

# assay.notes: in vivo
# measurement.parameters: po
observed.property: LD50

The cases that follow already have their LD50 on record.
1. CCCC1N[C@H](c2ccc(O)cc2)C(=O)N1[C@@H]1C(=O)N2[C@@H]1SC(C)(C)[C@@H]2C(=O)O (stereo partly drawn); > 10000 mg/kg
2. CC1(C)S[C@@H]2[C@H](NC(=O)[C@H](N)c3ccc(O)cc3)C(=O)N2[C@H]1C(=O)O; > 10000 mg/kg

Okay, next one:
Which LD50 value belongs to CC1N[C@H](c2ccc(O)cc2)C(=O)N1[C@@H]1C(=O)N2[C@@H]1SC(C)(C)[C@@H]2C(=O)O (stereo partly drawn) ? > 10000 mg/kg

---

# assay.notes: physchem
# Type: physicochemical
# measurement.parameters: 5% dextrose solution, 0.5% concentration, read-out: antibacterial activity retained in a 24 hour period
observed.property: remaining at 24 h (%)
Answers are plain numbers, in %.

Which remaining at 24 h value belongs to CC1N[C@H](c2ccc(O)cc2)C(=O)N1[C@@H]1C(=O)N2[C@@H]1SC(C)(C)[C@@H]2C(=O)O (stereo partly shown) [Acetaldehyde derivative] ? 83

---

# assay.notes: physchem
# measurement.parameters: water
Structures can show the parent of a compound that is named as a salt.
Provide the reported remaining at 2 h of each item.
Give bare numbers, in %.

1. CCCC1N[C@H](c2ccc(O)cc2)C(=O)N1[C@@H]1C(=O)N2[C@@H]1SC(C)(C)[C@@H]2C(=O)O (stereo partly drawn); 83

// each molecule listed below needs its remaining at 2 h
1. CC1N[C@H](c2ccc(O)cc2)C(=O)N1[C@@H]1C(=O)N2[C@@H]1SC(C)(C)[C@@H]2C(=O)O (stereo partly drawn)
2. CC1(C)S[C@@H]2[C@H](NC(=O)[C@H](N)c3ccc(O)cc3)C(=O)N2[C@H]1C(=O)O [Amoxicillin sodium salt]

[99, 91]

---

# assay.notes: in vivo
# measurement.parameters: sc
observed.property: LD50

1. CC1(C)S[C@@H]2[C@H](NC(=O)[C@H](N)c3ccc(O)cc3)C(=O)N2[C@H]1C(=O)O; 10000 mg/kg
2. CCCC1N[C@H](c2ccc(O)cc2)C(=O)N1[C@@H]1C(=O)N2[C@@H]1SC(C)(C)[C@@H]2C(=O)O (stereo partly drawn); 10000 mg/kg

Which LD50 value belongs to CC1N[C@H](c2ccc(O)cc2)C(=O)N1[C@@H]1C(=O)N2[C@@H]1SC(C)(C)[C@@H]2C(=O)O (stereo partly drawn) ? > 10000 mg/kg

---

Provide the reported remaining at 1 h of each item.
# assay.notes: physchem
# measurement.parameters: water
Where a name gives a salt, the structure may show the parent alone.
Don't forget the unit after the value.

The cases that follow already have their remaining at 1 h on record.
1) CCCC1N[C@H](c2ccc(O)cc2)C(=O)N1[C@@H]1C(=O)N2[C@@H]1SC(C)(C)[C@@H]2C(=O)O (stereo partly drawn); 95%
2) CC1(C)S[C@@H]2[C@H](NC(=O)[C@H](N)c3ccc(O)cc3)C(=O)N2[C@H]1C(=O)O [Amoxicillin sodium salt]; 100%

Okay, next one:
Which remaining at 1 h value belongs to CC1N[C@H](c2ccc(O)cc2)C(=O)N1[C@@H]1C(=O)N2[C@@H]1SC(C)(C)[C@@H]2C(=O)O (stereo partly drawn) ? 100%

---

# assay.notes: physchem
# Format: physicochemical
# measurement.parameters: 5% dextrose solution, 5% dextrose solutions, same conditions (0.5 and 1.0%), read-out: antibacterial activity retained in a 24 hour period
Where a name gives a salt, the structure may show the parent alone.
observed.property: remaining at 24 h

Which remaining at 24 h value belongs to CC1(C)S[C@@H]2[C@H](NC(=O)[C@H](N)c3ccc(O)cc3)C(=O)N2[C@H]1C(=O)O [Amoxicillin sodium salt] ? < 40%

---

# assay.notes: physchem
# measurement.parameters: water
Counter-ions that a name gives are not always drawn.
observed.property: remaining at 4 h
Don't forget the unit after the value.

1) CC1(C)S[C@@H]2[C@H](NC(=O)[C@H](N)c3ccc(O)cc3)C(=O)N2[C@H]1C(=O)O [Amoxicillin sodium salt]; 65%

Okay, next one:
Which remaining at 4 h value belongs to CC1N[C@H](c2ccc(O)cc2)C(=O)N1[C@@H]1C(=O)N2[C@@H]1SC(C)(C)[C@@H]2C(=O)O (some centres unmarked) ? 99%

---

Provide the reported remaining at 24 h of each item.
# assay.notes: physchem
# measurement.parameters: water
# Protocol: To illustrate the relative stability of the compounds of this invention in aqueous solution at room temperature the sodium salts of the compounds were tested as 20% by weight aqueous solutions for activity by microbiological assay using B. subtilis as the test organism and compared to 10% and 20% aqueous solutions of amoxicillin sodium salt and 10% aqueous solution of the acetone derivative of amoxicillin.
Counter-ions that a name gives are not always drawn.
Give bare numbers, in %.

The cases that follow already have their remaining at 24 h on record.
1. CCCC1N[C@H](c2ccc(O)cc2)C(=O)N1[C@@H]1C(=O)N2[C@@H]1SC(C)(C)[C@@H]2C(=O)O (stereo partly drawn); 70
2. CC1(C)S[C@@H]2[C@H](NC(=O)[C@H](N)c3ccc(O)cc3)C(=O)N2[C@H]1C(=O)O [Amoxicillin sodium salt]; 38

Okay, next one:
Which remaining at 24 h value belongs to CC1N[C@H](c2ccc(O)cc2)C(=O)N1[C@@H]1C(=O)N2[C@@H]1SC(C)(C)[C@@H]2C(=O)O (stereo partly drawn) ? 94

---

# assay.notes: Stability in aqueous solution at room temperature, microbiological assay using B. subtilis
# measurement.parameters: water
Structures can show the parent of a compound that is named as a salt.
observed.property: remaining at 6 h (%)
Numbers only, in %.

1) CC1N[C@H](c2ccc(O)cc2)C(=O)N1[C@@H]1C(=O)N2[C@@H]1SC(C)(C)[C@@H]2C(=O)O (stereo partly drawn) [Acetaldehyde derivative]; 98
2) CC1(C)S[C@@H]2[C@H](NC(=O)[C@H](N)c3ccc(O)cc3)C(=O)N2[C@H]1C(=O)O [Amoxicillin sodium salt]; 59

Okay, next one:
Which remaining at 6 h value belongs to CCCC1N[C@H](c2ccc(O)cc2)C(=O)N1[C@@H]1C(=O)N2[C@@H]1SC(C)(C)[C@@H]2C(=O)O (stereo partly drawn) [Butyraldehyde derivative] ? 83
